Read-out: TIMP metallopeptidase inhibitor 1 (TIMP1), TIMP1 (gene 7076)
Method: BSK_hDFCGF_TIMP1: BioMAP Diversity Plus: hDFCGF Assay for TIMP metallopeptidase inhibitor 1 (TIMP1) Biomarker Activity (AID 2283062)
Study conditions: primary human foreskin fibroblasts; actives raise or lower the signal
Active and inactive are the calls of the source. The calls were made as follows: active = hit-call score of the fitted dose curve at least 0.9, where 1 is the maximum; inactive = score below 0.9.

Compound	AC50
COc1cc(OC)nc(NC(=O)NS(=O)(=O)c2ncccc2OCC(F)(F)F)n1	inactive
COc1ccc(-c2ccccc2)cc1NNC(=O)OC(C)C	inactive
OC(c1ccc(Cl)cc1)(c1ccc(Cl)cc1)C(Cl)(Cl)Cl	11.4 µM (active)
CCSC(=O)N1CCCCCC1	inactive
CCCCOCN(C(=O)CCl)c1c(CC)cccc1CC	13.7 µM (active)
CCN(CC)c1nc(C)cc(OP(=S)(OC)OC)n1	inactive
Cc1cc(C)nc(Nc2ccccc2)n1	inactive
CC(C)(C)C(=O)C(Oc1ccc(Cl)cc1)n1cncn1 (stereo not given)	inactive
CC(C)C1(C)N=C(c2ncccc2C(=O)O)NC1=O (stereo not given)	inactive
CCCCC(O)(Cn1cncn1)c1ccc(Cl)cc1Cl (stereo not given)	inactive
Clc1cccc(C(Cl)(Cl)Cl)n1	inactive
CCOc1nc(F)cc2nc(S(=O)(=O)Nc3c(Cl)cccc3Cl)nn12	inactive
CC1(C)C(C(=O)OC(C#N)c2cccc(Oc3ccccc3)c2)C1(C)C (stereo not given)	inactive
O=C1C2CC=CCC2C(=O)N1SC(Cl)(Cl)Cl (stereo not given)	inactive
CS(=O)(=O)c1cc(C(F)(F)F)ccc1C(=O)c1cnoc1C1CC1	inactive
CN=C=S	inactive
CCCN(CC)CC1COC2(CCC(C(C)(C)C)CC2)O1 (stereo not given)	3.97 µM (active)
C=CCOC(=O)C(C)(C)OC(=O)c1cc(-n2c(=O)cc(C(F)(F)F)n(C)c2=O)ccc1Cl	30.3 µM (active)
CCOc1nc(C(Cl)(Cl)Cl)ns1	inactive
CC(C)Oc1cccc(NC(=O)c2ccccc2C(F)(F)F)c1	inactive
CO/N=C(/C1=NOCCO1)c1ccccc1Oc1ncnc(Oc2ccccc2Cl)c1F	8.26 µM (active)
Nc1cnn(-c2ccccc2)c(=O)c1Cl	inactive
CC(C)N1C(=O)N(c2ccccc2)CSC1=NC(C)(C)C	inactive
CSC(=O)c1c(C(F)F)nc(C(F)(F)F)c(C(=O)SC)c1CC(C)C	inactive
Cn1c(-c2ccccc2)cc(-c2ccccc2)[n+]1C	20 µM (active)

====

Read-out: Cytochrome P450 3A4 (Homo sapiens) (UniProt P08684)
Sequence (P08684 whole entry, looked up): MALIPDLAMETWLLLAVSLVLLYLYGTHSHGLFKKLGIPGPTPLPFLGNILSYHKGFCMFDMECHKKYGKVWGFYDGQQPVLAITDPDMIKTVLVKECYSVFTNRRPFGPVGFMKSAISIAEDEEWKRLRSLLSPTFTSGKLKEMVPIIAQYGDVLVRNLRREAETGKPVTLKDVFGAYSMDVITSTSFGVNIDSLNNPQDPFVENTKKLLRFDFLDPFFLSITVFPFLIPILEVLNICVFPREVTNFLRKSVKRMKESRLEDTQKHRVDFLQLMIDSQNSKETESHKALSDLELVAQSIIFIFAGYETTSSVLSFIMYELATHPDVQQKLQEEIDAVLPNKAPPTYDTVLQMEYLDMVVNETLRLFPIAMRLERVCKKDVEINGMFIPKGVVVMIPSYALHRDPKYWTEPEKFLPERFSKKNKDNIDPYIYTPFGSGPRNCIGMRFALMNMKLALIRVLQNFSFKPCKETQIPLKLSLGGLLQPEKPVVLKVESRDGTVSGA
Method: CLD_CYP3A4_24hr: CellzDirect (CLD) Gene Expression Assay for xenobiotic metabolism (CYP3A4) at 24 hours (AID 2283689)
Method: CLD_24hr is a cell-based, multiplexed-readout assay that uses hepatocyte, a human liver primary cell, with measurements taken at 24 hours after chemical dosing in a 96-well plate.CLD_CYP3A4_24hr is one of 16 assay component(s) measured or calculated from the CLD_24hr assay. […] Furthermore, this assay endpoint can be referred to as a primary readout. […]
Results filed as inconclusive are left out. Activity calls are given as the source filed them. Rule for the calls: active = hit-call score of the fitted dose curve at least 0.9, where 1 is the maximum; inconclusive = response in the unintended direction; inactive = score below 0.9.
Possible outcomes: 1 = active, -1 = inactive

Compound	Class assignment
Cc1cc(C)nc(Nc2ccccc2)n1	1
Nc1c(Cl)c(F)nc(OCC(=O)O)c1Cl	-1
Nc1c(Cl)c(Cl)nc(C(=O)O)c1Cl	-1
CC(C)=CC1C(C(=O)OCc2coc(Cc3ccccc3)c2)C1(C)C (stereo not drawn)	-1
COc1ccc(-c2ccccc2)cc1NNC(=O)OC(C)C	-1
CCOP(=S)(OCC)Oc1nc(Cl)n(C(C)C)n1	1
OC(c1ccc(Cl)cc1)(c1ccc(Cl)cc1)C(Cl)(Cl)Cl	1
CC(C)Nc1nc(Cl)nc(NC(C)C)n1	1
CN=C=S	-1
CC(C)N1C(=O)c2ccccc2NS1(=O)=O	-1
Cc1nc(N(C)C)nc(OC(=O)N(C)C)c1C	1
CO/N=C(/C1=NOCCO1)c1ccccc1Oc1ncnc(Oc2ccccc2Cl)c1F	-1
CCC(C)n1c(=O)[nH]c(C)c(Br)c1=O (stereo not drawn)	-1

====

Recorded AC50 for the following molecules
Test system: human Esterase Plasma (ES), BCHE (gene 590) (UniProt P06276)
Sequence (P06276 whole entry, looked up): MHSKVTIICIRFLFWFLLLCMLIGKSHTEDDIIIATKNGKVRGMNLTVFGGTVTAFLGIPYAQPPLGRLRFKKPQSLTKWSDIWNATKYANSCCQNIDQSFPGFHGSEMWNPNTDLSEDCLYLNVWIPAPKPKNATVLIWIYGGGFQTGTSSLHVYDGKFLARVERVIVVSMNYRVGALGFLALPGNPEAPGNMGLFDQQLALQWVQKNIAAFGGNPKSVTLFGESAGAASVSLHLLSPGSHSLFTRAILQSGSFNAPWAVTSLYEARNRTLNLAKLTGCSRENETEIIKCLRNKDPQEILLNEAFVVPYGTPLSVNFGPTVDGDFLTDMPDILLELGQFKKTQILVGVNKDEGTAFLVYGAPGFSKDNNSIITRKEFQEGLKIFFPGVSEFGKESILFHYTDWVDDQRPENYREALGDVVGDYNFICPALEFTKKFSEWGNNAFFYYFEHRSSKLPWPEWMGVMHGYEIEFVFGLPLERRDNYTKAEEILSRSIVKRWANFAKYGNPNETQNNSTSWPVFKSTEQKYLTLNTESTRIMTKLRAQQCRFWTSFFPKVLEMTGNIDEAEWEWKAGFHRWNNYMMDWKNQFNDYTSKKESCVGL
Method: NVS_ENZ_hES: NovaScreen (NVS) Enzymatic Assay for human Esterase Plasma (ES) (AID 2283157)
Description: NVS_ENZ_hES is a biochemical, single-readout assay that uses extracted gene-proteins from Human plasma in a cell-free assay. Measurements were taken 0.25 hour after chemical dosing in a 96-well plate.NVS_ENZ_hES is one of one assay component(s) measured or calculated from the NVS_ENZ_hES assay. […] This assay endpoint, NVS_ENZ_hES, was analyzed in the positive analysis fitting direction relative to DMSO as the negative control and baseline of activity. […]
Records with an inconclusive call do not appear. The source made the active and inactive calls. How the source made its calls: active means hit-call score of the fitted dose curve at least 0.9, where 1 is the maximum; inconclusive means response in the unintended direction; inactive means score below 0.9.
Readout: AC50

Molecule	Readout	Value measured
Cn1c(-c2ccccc2)cc(-c2ccccc2)[n+]1C	AC50	4.69 µM (active)
CCOP(=S)(OCC)Oc1nc(Cl)n(C(C)C)n1	AC50	4.75 µM (active)
CCOP(=O)(OCC)Oc1nc(Cl)c(Cl)cc1Cl	AC50	0.00463 µM (active)
Cc1nc(N(C)C)nc(OC(=O)N(C)C)c1C	AC50	16.9 µM (active)
CCN(CC)C(=O)C(C)Oc1cccc2ccccc12 (stereo not given)	AC50	16.7 µM (active)

====

Read-out: HMG-CoA synthase (HMGCS2), HMGCS2 (gene 3158)
Method: CLD_HMGCS2_24hr: CellzDirect (CLD) Gene Expression Assay for HMG-CoA synthase (HMGCS2) at 24 hours (AID 2283691)
Records with an inconclusive call do not appear. The source made the active and inactive calls. Rule for the calls: active = hit-call score of the fitted dose curve at least 0.9, where 1 is the maximum; inconclusive = response in the unintended direction; inactive = score below 0.9.
Labels: t = active, f = inactive

Compound	Class assignment
Cc1nc(N(C)C)nc(OC(=O)N(C)C)c1C	f
CSC(=O)c1c(C(F)F)nc(C(F)(F)F)c(C(=O)SC)c1CC(C)C	f
CCOC(=O)C(C)OC(=O)c1cc(Oc2ccc(C(F)(F)F)cc2Cl)ccc1[N+](=O)[O-] (stereo unspecified)	t
CCOc1nc(F)cc2nc(S(=O)(=O)Nc3c(Cl)cccc3Cl)nn12	f
COCc1cnc(C2=NC(C)(C(C)C)C(=O)N2)c(C(=O)O)c1 (stereo unspecified)	f
CS(=O)(=O)c1ccc(C(=O)C2C(=O)CCCC2=O)c([N+](=O)[O-])c1	f

====

Test system: human Beta-secretase (BACE), BACE1 (gene 23621)
Method: NVS_ENZ_hBACE: NovaScreen (NVS) Enzymatic Assay for human Beta-secretase (BACE) (AID 2283140);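 also: hits are inhibitors that reduce fluorescent substrate signal versus DMSO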
Results filed as inconclusive are left out. The source made the active and inactive calls. Rule for the calls: active = hit-call score of the fitted dose curve at least 0.9, where 1 is the maximum; inconclusive = response in the unintended direction; inactive = score below 0.9.
Outcome codes: YES for active, NO for inactive

Compound	Class assignment
COC(=O)c1c(C(F)F)nc(C(F)(F)F)c(C2=NCCS2)c1CC(C)C	YES
COC(=O)N(C(=O)N1CO[C@@]2(C(=O)OC)Cc3cc(Cl)ccc3C2=N1)c1ccc(OC(F)(F)F)cc1	NO
CC(C)=CC1C(C(=O)OCc2coc(Cc3ccccc3)c2)C1(C)C (stereo not given)	YES
CC1(C)C(C(=O)OC(C#N)c2cccc(Oc3ccccc3)c2)C1(C)C (stereo not given)	YES
Cc1c(COC(=O)[C@@H]2[C@H](/C=C(\Cl)C(F)(F)F)C2(C)C)cccc1-c1ccccc1	NO

====

Method: CCTE_Mundy_HCI_Cortical_Synap_Neur_Matur_NeuriteSpotCountPerNeuron: CCTE's Synaptogenesis and Neurite Maturation Assay in rat cortical cells for Neurite Spot Count per Neuron Count, Mundy Lab (AID 2284215)
Calls of active or inactive are those of the source. The calls were made as follows: active = hit-call score of the fitted dose curve at least 0.9, where 1 is the maximum; inactive = score below 0.9.
Classes used: y for active, n for inactive

Compound	Class assignment
CCN(CC)c1nc(C)cc(OP(=S)(OC)OC)n1	y
CC(C)(C)C(=O)C(Oc1ccc(Cl)cc1)n1cncn1 (stereo not drawn)	y
Cc1c(COC(=O)[C@@H]2[C@H](/C=C(\Cl)C(F)(F)F)C2(C)C)cccc1-c1ccccc1	y
CO/N=C(/C1=NOCCO1)c1ccccc1Oc1ncnc(Oc2ccccc2Cl)c1F	y
C=C(C)CN(CC)c1c([N+](=O)[O-])cc(C(F)(F)F)cc1[N+](=O)[O-]	y
COC(=O)N(C(=O)N1CO[C@@]2(C(=O)OC)Cc3cc(Cl)ccc3C2=N1)c1ccc(OC(F)(F)F)cc1	n
CS(=O)(=O)c1cc(C(F)(F)F)ccc1C(=O)c1cnoc1C1CC1	n
O=C(Nc1ccccc1-c1ccc(Cl)cc1)c1cccnc1Cl	n

====

Read-out: E-selectin (Homo sapiens) (UniProt P16581)
Sequence (P16581 whole entry, looked up): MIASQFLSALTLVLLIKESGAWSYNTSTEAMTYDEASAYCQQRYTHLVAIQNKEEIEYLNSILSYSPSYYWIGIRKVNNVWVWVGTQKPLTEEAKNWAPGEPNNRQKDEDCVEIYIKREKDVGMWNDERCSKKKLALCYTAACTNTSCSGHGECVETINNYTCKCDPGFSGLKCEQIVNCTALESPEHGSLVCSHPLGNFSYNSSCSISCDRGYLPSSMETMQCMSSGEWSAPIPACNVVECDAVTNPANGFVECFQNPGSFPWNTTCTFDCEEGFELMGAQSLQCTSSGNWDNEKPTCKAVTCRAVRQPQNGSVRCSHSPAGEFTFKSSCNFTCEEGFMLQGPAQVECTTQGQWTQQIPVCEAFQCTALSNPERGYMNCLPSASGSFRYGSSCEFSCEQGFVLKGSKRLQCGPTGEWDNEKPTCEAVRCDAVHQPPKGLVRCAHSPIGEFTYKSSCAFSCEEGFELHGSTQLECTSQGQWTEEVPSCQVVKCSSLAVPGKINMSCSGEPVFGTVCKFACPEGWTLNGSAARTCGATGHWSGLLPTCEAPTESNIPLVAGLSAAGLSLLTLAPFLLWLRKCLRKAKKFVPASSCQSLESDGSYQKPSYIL
Method: BSK_LPS_Eselectin: BioMAP Diversity Plus: LPS Assay for Eselectin Biomarker Activity (AID 2283077)
Study conditions: primary human HUVEC with PBMC; actives raise or lower the signal
Active and inactive are the calls of the source. How the source made its calls: active means hit-call score of the fitted dose curve at least 0.9, where 1 is the maximum; inactive means score below 0.9.

Molecule	AC50
CCNP(=S)(OC)O/C(C)=C/C(=O)OC(C)C (configuration not stated)	inactive
CC(C)Oc1cccc(NC(=O)c2ccccc2C(F)(F)F)c1	inactive
OC(c1ccc(Cl)cc1)(c1ccc(Cl)cc1)C(Cl)(Cl)Cl	30.9 µM (active)
CCOc1cc(C(C)(C)C)ccc1C1COC(c2c(F)cccc2F)=N1 (configuration not stated)	33.2 µM (active)
CCN(CC)c1nc(C)cc(OP(=S)(OC)OC)n1	inactive
Nc1c(Cl)c(F)nc(OCC(=O)O)c1Cl	inactive
O=P(O)(O)CCCl	inactive
CCCN(CC)CC1COC2(CCC(C(C)(C)C)CC2)O1 (configuration not stated)	inactive
CCCC(=NOCC)C1=C(O)CC(CC(C)SCC)CC1=O (configuration not stated)	inactive
CC(C)C1(C)N=C(c2ncccc2C(=O)O)NC1=O (configuration not stated)	inactive
CCC(C)n1c(=O)[nH]c(C)c(Br)c1=O (configuration not stated)	inactive
C=CCOC(=O)C(C)(C)OC(=O)c1cc(-n2c(=O)cc(C(F)(F)F)n(C)c2=O)ccc1Cl	inactive
